SUBJECT OF TEST: Glycogen phosphorylase, liver form (Homo sapiens)
ASSAY OVERVIEW: Inhibition of human glycogen phosphorylase a in HepG2 cells assessed as inhibition of forskolin-stimulated glycogenolysis
Format: cell-based
pIC50: −log10 of the molar value.
QUANTITY KIND: pIC50

Worked cases, answers included:
> print(dat)
                                  structure                           subject.of.test  reported.measurement
1  Cc1cc(C)c(NC(=O)Nc2ccccc2C(=O)N[C@H](C(=O)O)[C@@H](C)OC(C)(C)C)c(C)c1  Glycogen phosphorylase, liver form (Homo sapiens)                  5.77
2  CCCc1cc(C)c(NC(=O)Nc2cc(F)ccc2C(=O)N[C@H](C(=O)O)[C@@H](C)OC(C)(C)C)c(C)c1  Glycogen phosphorylase, liver form (Homo sapiens)                  6.83
3  CCCc1cc(C)c(NC(=O)Nc2cc(-c3ccc(F)c(F)c3)ccc2C(=O)N[C@H](C(=O)O)[C@@H](C)OC(C)(C)C)c(C)c1  Glycogen phosphorylase, liver form (Homo sapiens)                  6.74
4  Cc1cc(C)c(NC(=O)Nc2cc(-c3ccccc3)ccc2C(=O)N[C@H](C(=O)O)[C@@H](C)OC(C)(C)C)c(C)c1  Glycogen phosphorylase, liver form (Homo sapiens)                  6.90
5  Cc1cc(C)c(NC(=O)Nc2cc(-c3cccc(F)c3)ccc2C(=O)N[C@H](C(=O)O)[C@@H](C)OC(C)(C)C)c(C)c1  Glycogen phosphorylase, liver form (Homo sapiens)                  6.98

(1) COc1ccccc1-c1ccc(C(=O)N[C@H](C(=O)O)[C@@H](C)OC(C)(C)C)c(NC(=O)Nc2c(C)cc(C)cc2C)c1
(2) CCCc1cc(C)c(NC(=O)Nc2cc(-c3ccc(OC)cc3)ccc2C(=O)N[C@H](C(=O)O)[C@@H](C)OC(C)(C)C)c(C)c1
Q) API: POST /compare with 1 and 2 ; response names the item with higher pIC50. Bench note: the answer is the label of the chosen record.
A) 2

----------
SUBJECT OF TEST: Glycogen phosphorylase, liver form (Homo sapiens, UniProt P06737)
ASSAY OVERVIEW: Inhibition of human liver glycogen phosphorylase a by coupled kinetic fluorescent intensity assay
QUANTITY KIND: IC50 (nM)

> print(dat)
                                  structure  unit.spec  reported.measurement
1  CCCc1cc(C)c(NC(=O)Nc2cc(F)ccc2C(=O)N[C@H](C(=O)O)[C@@H](C)OC(C)(C)C)c(C)c1         nM                    10

(P) Cc1cc(C)c(NC(=O)Nc2cc(-c3ccccc3)ccc2C(=O)N[C@H](C(=O)O)[C@@H](C)OC(C)(C)C)c(C)c1
(Q) COc1ccccc1-c1ccc(C(=O)N[C@H](C(=O)O)[C@@H](C)OC(C)(C)C)c(NC(=O)Nc2c(C)cc(C)cc2C)c1
(R) CCCc1cc(C)c(NC(=O)Nc2cc(-c3cccc(F)c3)ccc2C(=O)N[C@H](C(=O)O)[C@@H](C)OC(C)(C)C)c(C)c1
Q) List the 3 entries from lowest IC50 to highest IC50 value. Please respond with the labels ordered as the question requires.
A) R, P, Q

----------
ASSAY OVERVIEW: Bioavailability in rat at 1 mg/kg, iv and 5 mg/kg, po
Assay type: ADME, organism-based
EXPERIMENTAL SETUP: in vivo
QUANTITY KIND: bioavailability (%)
Use % as the unit, but write only the number.

Q) Could you tell me which bioavailability is on file for Cc1cc(CC2CC2)cc(C)c1NC(=O)Nc1cc(-c2cccc(F)c2)ccc1C(=O)N[C@H](C(=O)O)[C@@H](C)OC(C)(C)C ?
A) 27

----------
ASSAY OVERVIEW: Cmax in rat at 5 mg/kg, po
Format: ADME, organism-based
Design: dose 5 mg/kg, route oral
EXPERIMENTAL SETUP: in vivo
QUANTITY KIND: Cmax (ng/mL)
Record the value in ng/mL, omitting the unit from your answer.

Q) Endpoint output: Cmax of Cc1cc(CC2CC2)cc(C)c1NC(=O)Nc1cc(-c2cccc(F)c2)ccc1C(=O)N[C@H](C(=O)O)[C@@H](C)OC(C)(C)C . Value?
A) 536

----------
SUBJECT OF TEST: Glycogen phosphorylase, liver form (Homo sapiens, UniProt P06737)
Sequence (P06737 whole entry): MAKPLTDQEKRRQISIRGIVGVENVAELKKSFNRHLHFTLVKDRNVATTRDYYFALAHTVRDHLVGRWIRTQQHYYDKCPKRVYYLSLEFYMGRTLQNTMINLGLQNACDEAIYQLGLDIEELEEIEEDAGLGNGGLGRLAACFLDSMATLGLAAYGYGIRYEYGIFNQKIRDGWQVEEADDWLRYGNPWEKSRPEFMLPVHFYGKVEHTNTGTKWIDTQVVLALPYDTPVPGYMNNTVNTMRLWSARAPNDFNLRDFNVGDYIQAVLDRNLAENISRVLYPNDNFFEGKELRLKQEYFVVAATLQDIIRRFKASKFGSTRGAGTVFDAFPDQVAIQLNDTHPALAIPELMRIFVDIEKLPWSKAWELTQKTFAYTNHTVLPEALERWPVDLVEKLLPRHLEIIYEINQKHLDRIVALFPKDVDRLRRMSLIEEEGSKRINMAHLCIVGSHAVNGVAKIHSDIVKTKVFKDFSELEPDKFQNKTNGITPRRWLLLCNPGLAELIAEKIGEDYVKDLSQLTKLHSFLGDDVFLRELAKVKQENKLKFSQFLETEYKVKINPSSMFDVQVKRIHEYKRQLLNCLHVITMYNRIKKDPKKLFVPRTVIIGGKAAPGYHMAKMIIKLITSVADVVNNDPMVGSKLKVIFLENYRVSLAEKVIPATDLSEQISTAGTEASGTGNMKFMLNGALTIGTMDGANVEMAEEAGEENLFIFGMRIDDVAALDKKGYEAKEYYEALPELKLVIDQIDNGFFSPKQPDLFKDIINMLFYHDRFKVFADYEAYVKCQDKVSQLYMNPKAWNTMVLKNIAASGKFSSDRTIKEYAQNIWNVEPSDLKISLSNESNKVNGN
ASSAY OVERVIEW: Inhibition of human glycogen phosphorylase a in HepG2 cells assessed as inhibition of forskolin-stimulated glycogenolysis
Type: cell-based
QUANTITY KIND: IC50 (nM)

Guide cases for IC50, answers given:
> print(dat)
                                  structure  unit.spec  reported.measurement
1  Cc1cc(C)c(NC(=O)Nc2cc(F)ccc2C(=O)N[C@H](C(=O)O)C2CCCCC2)c(C)c1         nM                  1030
2  Cc1cc(CC2CC2)cc(C)c1NC(=O)Nc1cc(F)ccc1C(=O)N[C@H](C(=O)O)C1CCCCC1         nM                   384
3  COc1cccc(-c2ccc(C(=O)N[C@H](C(=O)O)[C@@H](C)OC(C)(C)C)c(NC(=O)Nc3c(C)cc(C)cc3C)c2)c1         nM                   109
4  Cc1cc(C)c(NC(=O)Nc2cc(-c3ccc(F)c(F)c3)ccc2C(=O)N[C@H](C(=O)O)[C@@H](C)OC(C)(C)C)c(C)c1         nM                   171
5  CCCCc1cc(C)c(NC(=O)Nc2cc(F)ccc2C(=O)N[C@H](C(=O)O)C2CCCCC2)c(C)c1         nM                   716
6  COc1ccc(-c2ccc(C(=O)N[C@H](C(=O)O)[C@@H](C)OC(C)(C)C)c(NC(=O)Nc3c(C)cc(C)cc3C)c2)cc1         nM                    34

(I) CCc1cc(C)c(NC(=O)Nc2cc(F)ccc2C(=O)N[C@H](C(=O)O)C2CCCCC2)c(C)c1
(II) CCCc1cc(C)c(NC(=O)Nc2cc(F)ccc2C(=O)N[C@H](C(=O)O)C2CCCCC2)c(C)c1
Q) Larger number for IC50: I , or II ? Reply briefly: the label of your chosen item.
A) I

(1) CCCc1cc(C)c(NC(=O)Nc2cc(-c3cccc(F)c3)ccc2C(=O)N[C@H](C(=O)O)[C@@H](C)OC(C)(C)C)c(C)c1
(2) Cc1cc(C)c(NC(=O)Nc2cc(F)ccc2C(=O)N[C@H](C(=O)O)[C@@H](C)OC(C)(C)C)c(C)c1
Q) Looking at 1 and 2 , which one comes out lower in IC50 terms? Please identify the chosen entry by its label.
A) 1

(1) Cc1cc(CC2CC2)cc(C)c1NC(=O)Nc1cc(-c2cccc(F)c2)ccc1C(=O)N[C@H](C(=O)O)[C@@H](C)OC(C)(C)C
(2) Cc1cccc(C)c1NC(=O)Nc1cc(F)ccc1C(=O)N[C@H](C(=O)O)C1CCCCC1
(3) Cc1cc(C)c(NC(=O)Nc2cc(-c3ccc(F)cc3)ccc2C(=O)N[C@H](C(=O)O)[C@@H](C)OC(C)(C)C)c(C)c1
Q) List by increasing IC50. Could you list the labels in the order requested?
A) 3, 1, 2
